Target: IRAK4 (Homo sapiens, UniProt Q9NWZ3)
Construct: endogenous in cells; host or cells: Karpas299
Sequence (Q9NWZ3 whole entry): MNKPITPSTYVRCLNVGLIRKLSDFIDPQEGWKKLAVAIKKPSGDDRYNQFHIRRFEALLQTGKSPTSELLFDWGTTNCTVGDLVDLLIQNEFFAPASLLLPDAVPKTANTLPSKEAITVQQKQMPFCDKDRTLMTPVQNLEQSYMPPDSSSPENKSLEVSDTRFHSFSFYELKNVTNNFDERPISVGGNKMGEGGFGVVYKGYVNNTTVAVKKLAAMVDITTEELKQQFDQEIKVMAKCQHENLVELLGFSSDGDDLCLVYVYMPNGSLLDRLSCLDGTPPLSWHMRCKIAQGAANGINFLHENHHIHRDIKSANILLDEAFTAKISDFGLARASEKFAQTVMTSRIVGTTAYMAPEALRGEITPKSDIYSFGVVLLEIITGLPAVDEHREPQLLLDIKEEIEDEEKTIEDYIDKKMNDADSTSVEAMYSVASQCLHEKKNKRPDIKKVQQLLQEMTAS
Experiment: IRAK4 Degradation Assay (Karpas299, HTRF/TR-FRET)
Type: cell-based
Conditions: Karpas-299 cells, 24 h treatment; maximum percentage of degradation; read-out: IRAK4 in Karpas-299 (24 h) Dmax (%)
quantity: Dmax (%)

structure.smiles.string	display.unit	Dmax
C[C@H]1CN(CC2CN(c3cc(F)c([C@H]4CCC(=O)NC4=O)c(F)c3)C2)CCN1[C@H]1CC[C@H](n2cc3cc(NC(=O)c4ccc5cc(C#N)cnn45)c(C(C)(C)O)cc3n2)CC1	%	98
CC(C)(O)c1cc2nn(C34CC(N5CCN(C(=O)[C@@H]6CCN(c7cc(F)c([C@H]8CCC(=O)NC8=O)c(F)c7)C6)CC5)(C3)C4)cc2cc1NC(=O)c1cccc(C(F)(F)F)n1	%	96
CC(C)(O)c1cc2nn([C@H]3CC[C@H](N4C[C@@H]5CN(CCc6cc(F)c([C@H]7CCC(=O)NC7=O)c(F)c6)C[C@H]5C4)CC3)cc2cc1NC(=O)c1ccc2cc(C#N)cnn12	%	98
COC[C@H]1CN([C@H]2CC[C@H](n3cc4cc(NC(=O)c5ccc6cc(C#N)cnn56)c(C(C)(C)O)cc4n3)CC2)CCN1C(=O)C1CN(c2cc(F)c([C@H]3CCC(=O)NC3=O)c(F)c2)C1	%	96
COC[C@@H]1CN([C@H]2CC[C@H](n3cc4cc(NC(=O)c5ccc6cc(C#N)cnn56)c(C(C)(C)O)cc4n3)CC2)CCN1C1CCN(c2cc(F)c([C@H]3CCC(=O)NC3=O)c(F)c2)CC1	%	98
